- Assay Summary: viability of uninfected HEp-2 cells – cell-based, HTS, cytotoxicity control for RSV inhibitor project, dose response (AID 2410)
- Assay type: functional
- Details: human respiratory syncytial virus
The source made the active and inactive calls.
For each of the compounds below, state its CC50.

Query :: Could you tell me which CC50 is on file for O=C(COc1ccc(Br)cc1CO)Nc1ccccc1F ?
Result :: 35.2 µM (active)

Query :: And what about the compound Cc1cc2nnc(SC(C)C)n2c2ccccc12 ?
Result :: > 50 µM (active)

Query :: Same question, [2H]c1c([2H])c([2H])c(-c2nc(N3CCCCCC3)sc2C(=O)c2ccccc2)c([2H])c1[2H] this time
Result :: 41.6 µM (active)

Query :: What about Cc1ccc(C2=NN(C(=O)CCC(=O)O)C(c3cn(-c4ccccc4)nc3-c3ccc(C)cc3)C2)cc1 (stereo unspecified) ?
Result :: 24.8 µM (active)

Query :: Ok, now CC1Cc2ccccc2N1S(=O)(=O)c1cccc(C(=O)N2CCN(c3ncccn3)CC2)c1 (stereo unspecified)
Result :: 3.41 µM (active)

Query :: // same read-out, input: Cc1ccc(OCCn2cc(/C=C(\C#N)C(=O)NCC3CCCO3)c3ccccc32)cc1 (stereo unspecified)
Result :: 38.7 µM (active)

* * *

- Test system: Streptococcus
- Assay Summary: GAS UMAA2166 growth inhibition – luminescence, BacTiterGlo, counter-screen for streptokinase expression inhibitor project, dose response (AID 1915);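 also: potency for reduction of bacterial viability or growth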
- Type: functional, organism-based
Calls of active or inactive are those of the source.
Could you please report measured EC50 for the items listed next?

Query :: Can you look up the measured EC50 of Cc1ccc(S(=O)(=O)N2c3ccccc3OCC2C(C)(C)C)cc1 (stereo unspecified) for me?
Result :: > 150 µM (not active)

Query :: For CCCN(CCC)S(=O)(=O)c1ccc(C(=O)Nc2nnc(-c3cc(OC)cc(OC)c3)o2)cc1 then?
Result :: 0.43 µM (active)

Query :: Follow-up item: CCCCCCn1c(=O)c(C(=O)Nc2ncccc2C)c(O)c2ccccc21
Result :: 1.98 µM (active)

Query :: Another molecule to check: Cc1nc(O)c2nsc(C(=O)Nc3ccc(N4CCCC(O)C4)cc3)c2n1 (stereo unspecified)
Result :: > 150 µM (not active)

Query :: And the next one, Cc1nc2c(=O)n(C)c(=O)nc-2n(C)n1 ?
Result :: 9.31 µM (active)

Query :: Can you check CCC(CO)Nc1ncnc2c1cnn2-c1ccc(OC)cc1 (stereo unspecified) next?
Result :: > 150 µM (not active)

* * *

- Measurement Target: Microphthalmia-associated transcription factor (Homo sapiens, UniProt O75030)
- Sequence (O75030 whole entry): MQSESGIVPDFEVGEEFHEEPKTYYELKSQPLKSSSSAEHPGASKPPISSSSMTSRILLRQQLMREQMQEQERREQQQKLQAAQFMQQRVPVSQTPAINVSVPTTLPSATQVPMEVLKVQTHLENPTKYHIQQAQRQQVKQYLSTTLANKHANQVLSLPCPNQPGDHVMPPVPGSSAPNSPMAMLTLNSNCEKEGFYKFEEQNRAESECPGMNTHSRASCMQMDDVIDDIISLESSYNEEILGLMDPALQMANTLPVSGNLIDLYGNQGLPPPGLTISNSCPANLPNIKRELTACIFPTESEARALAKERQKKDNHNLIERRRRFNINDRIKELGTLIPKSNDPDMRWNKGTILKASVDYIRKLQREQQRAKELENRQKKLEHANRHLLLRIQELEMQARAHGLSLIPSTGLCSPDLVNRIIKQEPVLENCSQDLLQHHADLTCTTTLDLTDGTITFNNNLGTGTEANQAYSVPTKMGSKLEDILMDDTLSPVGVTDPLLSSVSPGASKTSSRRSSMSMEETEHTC
- Assay Summary: reducers of TRPM1 reporter luminescence, concentration series – cell-based, SK-MEL-5, cherry-picked, set 3, MITF inhibitor project, dose response (AID 493073);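 also: SK-MEL-5 melanoma cells with luciferase driven by the MITF target TRPM1 promoter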
- Format: functional
Active and inactive are the calls of the source.
For each entry below, report its AC50 value.

Query :: Record request: AC50 value, item CC(NC(=O)c1ccc([N+](=O)[O-])o1)C12CC3CC(CC(C3)C1)C2 (centres undefined)
Result :: 15.1 µM (active)

Query :: Query O=C(CCl)Nc1cn(-c2ccccc2)nc1-c1ccccc1 next
Result :: 14.5 µM (active)

Query :: Another: C/C(=N\NC(=O)Cc1ccc(Cl)cc1)c1ccccn1
Result :: 4.22 µM (active)

Query :: Now consider Cc1ccc(C(=O)N/C(=C\c2ccc(-c3ccccc3[N+](=O)[O-])o2)C(=O)NCCN(C)C)cc1 .
Result :: 4.87 µM (active)
